The values you see were collected from patent US20140112957A1.

// values below are reported Aqueous solubility
- assay: drug saturated solubility in water
- Format: physicochemical
outcome measure: Aqueous solubility (µg/mL)

INSERT INTO results (compound, censoring_qualifier, measured_result) VALUES
  ('O=C(CCCCCCCCC(=O)Oc1ccc2c3c1O[C@H]1[C@@H](O)CC[C@@]4(O)[C@@H](C2)N(CC2CCC2)CC[C@]314)Oc1ccc2c3c1O[C@H]1[C@@H](O)CC[C@@]4(O)[C@@H](C2)N(CC2CCC2)CC[C@]314 [Sebacoyl dinalbuphine ester]', '<', 0.25),
  ('CCC(=O)Oc1ccc2c3c1O[C@H]1[C@@H](O)CC[C@@]4(O)[C@@H](C2)N(CC2CCC2)CC[C@]314 [Nalbuphine propionate]', '=', 44.67),
  ('CCCCCCC(=O)Oc1ccc2c3c1O[C@H]1[C@@H](O)CC[C@@]4(O)[C@@H](C2)N(CC2CCC2)CC[C@]314 [Nalbuphine enanthate]', '=', 3.00),
  ('CCCCCCCCCC(=O)Oc1ccc2c3c1O[C@H]1[C@@H](O)CC[C@@]4(O)[C@@H](C2)N(CC2CCC2)CC[C@]314 [Nalbuphine decanoate]', '=', 0.67),
  ('CC(C)(C)C(=O)Oc1ccc2c3c1O[C@H]1[C@@H](O)CC[C@@]4(O)[C@@H](C2)N(CC2CCC2)CC[C@]314 [Nalbuphine pivalate]', '=', 33.67);

###

// values below are reported logP
- assay: oil-in-water coefficient (logP) of nalbuphine and pro-soft drugs
- Format: physicochemical
outcome measure: logP

INSERT INTO measurements (compound, outcome_measure, measured_result) VALUES
  ('CCC(=O)Oc1ccc2c3c1O[C@H]1[C@@H](O)CC[C@@]4(O)[C@@H](C2)N(CC2CCC2)CC[C@]314 [Nalbuphine propionate]', 'logP', 1.05),
  ('CCCCCCCCCC(=O)Oc1ccc2c3c1O[C@H]1[C@@H](O)CC[C@@]4(O)[C@@H](C2)N(CC2CCC2)CC[C@]314 [Nalbuphine decanoate]', 'logP', 3.30),
  ('O=C(CCCCCCCCC(=O)Oc1ccc2c3c1O[C@H]1[C@@H](O)CC[C@@]4(O)[C@@H](C2)N(CC2CCC2)CC[C@]314)Oc1ccc2c3c1O[C@H]1[C@@H](O)CC[C@@]4(O)[C@@H](C2)N(CC2CCC2)CC[C@]314', 'logP', 3.15),
  ('CCCCCCC(=O)Oc1ccc2c3c1O[C@H]1[C@@H](O)CC[C@@]4(O)[C@@H](C2)N(CC2CCC2)CC[C@]314 [Nalbuphine enanthate]', 'logP', 1.94),
  ('CC(C)(C)C(=O)Oc1ccc2c3c1O[C@H]1[C@@H](O)CC[C@@]4(O)[C@@H](C2)N(CC2CCC2)CC[C@]314 [Nalbuphine pivalate]', 'logP', 1.42);
